STUDY_TARGET: delta opioid receptor (Mus musculus, UniProt P32300)
Construct: NG108-15 cell membranes were purchased from Applied Cell Sciences (Rockville, Md.); host or cells: NG108-15 cell membranes
Sequence (P32300 whole entry): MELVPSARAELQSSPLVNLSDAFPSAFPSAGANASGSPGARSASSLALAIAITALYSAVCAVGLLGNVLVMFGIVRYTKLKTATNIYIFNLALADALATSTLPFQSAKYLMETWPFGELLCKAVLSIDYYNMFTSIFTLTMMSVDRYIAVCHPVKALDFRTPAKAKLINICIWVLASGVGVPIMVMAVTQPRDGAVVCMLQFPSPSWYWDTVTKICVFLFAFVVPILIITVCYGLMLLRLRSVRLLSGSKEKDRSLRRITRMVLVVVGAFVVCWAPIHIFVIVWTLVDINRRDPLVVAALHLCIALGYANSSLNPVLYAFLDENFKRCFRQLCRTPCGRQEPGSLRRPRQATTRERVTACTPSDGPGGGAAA
TEST_DESCRIPTION: [35S]GTPγS binding assay in NG108-15 cell membranes (delta opioid functional assay), 200 nM screen
Format: biochemical
EXPERIMENTAL_CONDITIONS: relative efficacy from dose response; NG108-15 cell membranes
VALUE_KIND: GTPγS δ-opioid receptor Rel Efficacy
Form rule: numeric answer, no unit written next to it.

Consider the worked cases shown below.
{"MOLECULE": "COc1ccc(Oc2nc(-c3cncc(SC)c3)ncc2N[C@H]2CCCNC2)cc1 [Cpd 252]", "READOUT_VALUE": 1.007}
{"MOLECULE": "COc1ccc(Oc2nc(-c3cccnc3)ncc2NC[C@@H]2CCCCN2)cc1 [Cpd 225]", "READOUT_VALUE": 0.718}
{"MOLECULE": "COc1ccc(Oc2nc(-c3cccnc3)ncc2N2CCNC(C)(C)C2)cc1 [Cpd 355]", "READOUT_VALUE": 1.002}
{"MOLECULE": "COc1ccc(Oc2nc(-c3cncc(OC)c3)ncc2NC[C@@H]2CCCN2)cc1 [Cpd 68]", "READOUT_VALUE": 0.912}
{"MOLECULE": "COCc1ccc(Oc2nc(-c3cncc(C#N)c3)ncc2NC[C@@H]2CCCN2)cc1 [Cpd 153]", "READOUT_VALUE": 1.120}

Form field GTPγS δ-opioid receptor Rel Efficacy, entry COc1ccc(Oc2nc(-c3cncc(SC)c3)ncc2N2CC[C@@H](N)C2)cc1 [Cpd 348] : 0.689

So for COc1ccc(Oc2nc(-c3cncc(C#N)c3)ncc2N2CCC[C@@H](N)C2)cc1 [Cpd 330] , the logged GTPγS δ-opioid receptor Rel Efficacy turned out to be 0.894

Given item COc1ccc(Oc2nc(-c3cccnc3)ncc2N[C@H]2CCCNC2)cc1 [Cpd 236] , the value recorded as its GTPγS δ-opioid receptor Rel Efficacy is 1.042

----------
STUDY_TARGET: delta opioid receptor (Mus musculus, UniProt P32300)
Construct: NG108-15 cell membranes were purchased from Applied Cell Sciences (Rockville, Md.); host or cells: NG108-15 cell membranes
TEST_DESCRIPTION: [35S]GTPγS binding assay in NG108-15 cell membranes (delta opioid functional assay), 200 nM screen
Type: biochemical
EXPERIMENTAL_CONDITIONS: GTPγS δ-opioid receptor EC50 (μM), NG108-15 cell membranes; averages if tested more than once
VALUE_KIND: EC50 (µM)
Express the result in µM but write the number alone.

Known EC50 results, listed for orientation:
{"COMPOUND": "COc1ccc(Oc2nc(-c3cncc(C)c3)ncc2N[C@H]2CCCNC2)cc1 [Cpd 259]", "EC50 [µM]": 0.0749}
{"COMPOUND": "COc1ccc(Oc2nc(-c3cncc(SC)c3)ncc2N2CCNCC2)cc1 [Cpd 341]", "EC50 [µM]": 0.041}
{"COMPOUND": "N#Cc1cncc(-c2ncc(NC[C@@H]3CCCN3)c(Oc3ccc(OC(F)F)cc3)n2)c1 [Cpd 110]", "EC50 [µM]": 0.081}
{"COMPOUND": "Clc1cncc(-c2ncc(NC[C@@H]3CCCN3)c(Oc3ccccc3Cl)n2)c1 [Cpd 229]", "EC50 [µM]": 0.061}
{"COMPOUND": "COc1cncc(-c2ncc(NC[C@@H]3CCCN3)c(Oc3cccc(O)c3)n2)c1 [Cpd 249]", "EC50 [µM]": 0.011}

# EC50 of COc1ccc(Oc2nc(-c3cncc(OC)c3)ncc2N[C@H]2CCC[C@@H](N)C2)cc1 [Cpd 312] = 0.00435

Entry COc1ccc(Oc2nc(-c3cncc(SC)c3)ncc2NC2CCCC(N)C2)cc1 (single isomer, unassigned) [Cpd 319] — recorded EC50 = 0.112

So for COc1ccc(Oc2nc(-c3cccnc3)ncc2NC[C@@H]2CCCN2)cc1 [Cpd 8] , the logged EC50 turned out to be 0.0681

Summary for this compound, COc1ccc(Oc2nc(-c3cncc(C#N)c3)ncc2NC[C@@H]2C[C@@H](F)CN2)cc1 [Cpd 134] : EC50 is 0.004

# EC50 (compound: COc1ccc(Oc2nc(-c3cncc(C#N)c3)ncc2N2CC[C@@H](N)C2)cc1 [Cpd 326] ) is 0.032

Consider COc1ccc(Oc2nc(-c3cncc(F)c3)ncc2NC[C@@H]2CCCN2)cc1C [Cpd 205] . Its measured EC50 is 0.044

Per the records, this compound ( COc1ccc(Oc2nc(-c3cncc(C#N)c3)ncc2NCc2ncc[nH]2)cc1 [Cpd 284] ) has EC50 equal to 0.055

The measured EC50 associated with N#Cc1cncc(-c2ncc(NC[C@@H]3CCCN3)c(Oc3cccc(O)c3)n2)c1 [Cpd 231] reads 0.005

Just so you know, measured EC50 for CCOc1ccc(Oc2nc(-c3cncc(C#N)c3)ncc2NC[C@@H]2CCCN2)cc1 [Cpd 104] came out at 0.018

Data point: COc1ccc(Oc2nc(-c3cncc(C#N)c3)ncc2N2CCNC[C@H]2C)cc1 [Cpd 344] ; EC50 = 0.047
